Kindly state minimum effective dose, Prepulse Inhibition (PPI) for each of the entries shown.
# Tested on: Male C57 mice
# Assay remarks: PCP-induced disruption of prepulse inhibition (PPI) of the startle response
# Format: in vivo
# Measurement conditions: reversal of PCP-induced disruption; route not given
Give the value; after it, write the unit.

Please go through the list and note minimum effective dose, Prepulse Inhibition (PPI) for each molecule.
1. O=C1CCCc2c1ccn2CCCCN1CCN(c2ccc(F)cc2)CC1
2. O=C1CCCc2c1ccn2CCCCN1CCN(c2ccc(Br)cc2)CC1
3. O=C1CCCc2c1ccn2CCCN1CCN(c2cccc(Cl)c2)CC1

1 mg/kg
3 mg/kg
3 mg/kg

* * *

# Test system: mice
# Assay remarks: Spontaneous Activity model (locomotor activity)
# Format: in vivo
# Measurement conditions: models unwanted side effects
Quantity kind: minimum effective dose, Locomotor Activity

> print(dat)
                                   compound  recorded.result
1  O=C1CCCc2c1ccn2CCCN1CCN(c2cccc(Cl)c2)CC1 [Compound F]         >3 mg/kg
2  O=C1CCCc2c1ccn2CCN1CCN(c2cccc(C(F)(F)F)c2)CC1 [Compound E]        >10 mg/kg
3  O=C1CCCc2c1ccn2CCCN1CCN(c2cccc(C(F)(F)F)c2)CC1 [Compound G]        >10 mg/kg
4  O=C1CCCc2c1ccn2CCCCN1CCN(c2ccc(Br)cc2)CC1 [Compound C]        >10 mg/kg
5  O=C1CCCc2c1ccn2CCCCN1CCN(c2cccc(C(F)(F)F)c2)CC1 [Compound D]          3 mg/kg

Required: minimum effective dose, Locomotor Activity, one value per compound below.
1. O=C1CCCc2c1ccn2CCCCN1CCN(c2ccc(F)cc2)CC1 [Compound B]
2. O=C1CCCc2c1ccn2CCN1CCN(c2cccc(Cl)c2)CC1 [Compound A]

3 mg/kg
>10 mg/kg

* * *

# System: C-57 mice
# Assay remarks: Conditioned avoidance response (CAR) model
# Assay type: in vivo
# Measurement conditions: models unwanted side effects
Quantity kind: minimum effective dose, Conditioned Avoidance Response

Examples with their reported minimum effective dose, Conditioned Avoidance Response follow.
> print(dat)
                              smiles.record  assayed.target  recorded.result
1  O=C1CCCc2c1ccn2CCN1CCN(c2cccc(C(F)(F)F)c2)CC1       C-57 mice        >10 mg/kg
2  O=C1CCCc2c1ccn2CCCCN1CCN(c2ccc(Br)cc2)CC1       C-57 mice        >10 mg/kg

For every listed record, write down its minimum effective dose, Conditioned Avoidance Response.
1. O=C1CCCc2c1ccn2CCCCN1CCN(c2cccc(C(F)(F)F)c2)CC1
2. O=C1CCCc2c1ccn2CCCCN1CCN(c2ccc(F)cc2)CC1
3. O=C1CCCc2c1ccn2CCCN1CCN(c2cccc(C(F)(F)F)c2)CC1
4. O=C1CCCc2c1ccn2CCCN1CCN(c2cccc(Cl)c2)CC1
5. O=C1CCCc2c1ccn2CCN1CCN(c2cccc(Cl)c2)CC1

1. 3 mg/kg
2. >3 mg/kg
3. >10 mg/kg
4. >10 mg/kg
5. >10 mg/kg

* * *

# Test system: Male C57 mice
# Assay remarks: PCP-induced disruption of prepulse inhibition (PPI) of the startle response
# Format: in vivo
# Measurement conditions: reversal of PCP-induced disruption; route not given
Quantity kind: minimum effective dose, Prepulse Inhibition (PPI) (mg/kg)
One number for each entry, in mg/kg.

Worked cases, minimum effective dose, Prepulse Inhibition (PPI) given:
> print(dat)
                              smiles.record  unit.abbreviation  recorded.result
1   O=C1CCCc2c1ccn2CCN1CCN(c2cccc(Cl)c2)CC1              mg/kg                3
2  O=C1CCCc2c1ccn2CCN1CCN(c2cccc(C(F)(F)F)c2)CC1              mg/kg                3
3  O=C1CCCc2c1ccn2CCCN1CCN(c2cccc(C(F)(F)F)c2)CC1              mg/kg                3

Now look at this one.
Could you share what minimum effective dose, Prepulse Inhibition (PPI) was measured for "O=C1CCCc2c1ccn2CCCCN1CCN(c2cccc(C(F)(F)F)c2)CC1" , tested on Male C57 mice?
0.3
